Test system: OVCAR-4 ovarian
Test: NCI tumour cell line growth inhibition, 48 h

| Compound | Qualifier Sign | TGI [µM] |
| --- | --- | --- |
| COC(=O)C1(Cc2cccc(Cl)c2)CCCCCCN1C(=O)c1ccccc1 (stereo unspecified) | = | 50.6 |
| CC1(C)CCc2c(c(N=Nc3ccccc3)c3ccccc3c2O)O1 | > | 100 |
| O=C1c2cc(CCl)sc2C(=O)c2ccsc21 | = | 0.336 |
| CCN1/C(=C/C(C)=C/c2sc3ccccc3[n+]2CC)Sc2ccccc21 | = | 1.62 |
| Nc1ncc(Cc2nc3ccccc3s2)s1 | > | 100 |
| O=C(/C=C/c1cccc(Cl)c1)c1ccc(Cl)cc1Cl | = | 41.5 |
| CCN(CC)CCCNC(=O)Cc1ccccc1Nc1c(Cl)cccc1Cl | = | 33.1 |
| COc1ccc(C)cc1NC(=S)N/N=C/c1ccc(SC)cc1 | > | 100 |
| CCOC(=O)C(C[Si](C)(C)C)P(=O)(OCC)OCC (stereo unspecified) | > | 100 |
| Fc1ccccc1C1CC(C(c2ccccc2)c2ccccc2)=Nc2ccccc2S1 (stereo unspecified) | = | 32.9 |
| COc1cc(C2C(C(=O)Nc3ccccc3)=C(C)NC(C)=C2C(=O)Nc2ccccc2)ccc1O | > | 100 |
| O=C(/C=C/c1ccc(Cl)c(Cl)c1)Oc1ccc(/C=C2\CCCCC2=O)cc1 | > | 100 |
| C[C@@H]1CC[C@@]2(OC1)O[C@H]1C[C@H]3[C@@H]4CC=C5C[C@@H](O[C@@H]6O[C@H](CO)[C@@H](O[C@@H]7O[C@@H](CO)[C@H](O)[C@H]7O)[C@H](O)[C@H]6O[C@@H]6O[C@@H](C)[C@H](O)[C@@H](O)[C@H]6O)CC[C@]5(C)[C@H]4CC[C@]3(C)[C@H]1[C@@H]2C | = | 2.71 |
| COc1cccc(C2C(C(=O)Nc3cc(=O)n(C)c(=O)n3C)=C(C)NC(C)=C2C(=O)Nc2cc(=O)n(C)c(=O)n2C)c1O | > | 100 |
| COC(=O)C1=C(O)C(C(=O)OC)[C@]2(O)[C@H](C(=O)OC)[C@H]1C[C@@H](c1ccc(OC)cc1)[C@H]2C(=O)OC (stereo partly specified) | = | 78.2 |
| O=C1OC(CN2CCN(c3ccccc3)CC2)CN1C(=S)Nc1ccccc1 (stereo unspecified) | > | 100 |
| Cn1c(O)c(C(=O)Nc2ccc([N+](=O)[O-])cc2)c(=O)n(C)c1=S | = | 13.5 |
| N#Cc1nc(-c2ccccc2)oc1S(=O)(=O)N1CCOCC1 | = | 9.2 |
| C[N+]1(C)CN(c2ccccc2)C2(CCN(CCCC(=O)c3cccs3)CC2)C1=O | > | 100 |
| CN1C[C@@H]2CCCN2P1Oc1cccc2cccnc12 (stereo partly specified) | > | 100 |
| FC(F)(F)c1ccc(-c2cnc(Br)nc2NC2CCCCCC2)cc1 | > | 100 |

====

System: HT29 colon
Experiment: NCI tumour cell line growth inhibition, 48 h
Entries annotated with measured TGI
Metric: TGI

| Molecule | Observed Result |
| --- | --- |
| O=C(NC(Nc1ccc(F)c(Cl)c1)(C(F)(F)F)C(F)(F)F)C(C(F)(F)F)C(F)(F)F | 67.9 µM |
| CC(=O)Oc1cccc2c1C(=O)c1c(OC(C)=O)cc(C)cc1C2=O | > 100 µM |
| O=C(NNS(=O)(=O)c1cc(C(F)(F)F)cc(C(F)(F)F)c1)c1cnn(-c2ccc(Cl)cc2)c1C(F)(F)F | > 100 µM |
| COc1cc(C2C(C(=O)Nc3ccccc3)=C(C)NC(C)=C2C(=O)Nc2ccccc2)ccc1O | 33.8 µM |
| Cc1ccc(N2C(=O)/C(=C3\Sc4c(nc(C)[nH]c4=O)N3c3ccccc3)SC2=S)cc1 | > 100 µM |
| Nc1cccc(OCc2nc(N)nc(N)c2-c2ccc(Cl)cc2)c1 | > 100 µM |
| Nc1ccn(C2OC(COP(=O)(O)Oc3ccccc3)C(O)C2O)c(=O)n1 (centres undefined) | > 100 µM |
| COc1ccc(O)c2c1C(=O)CCCC2=O | > 100 µM |
| C=C(Cl)C(Cl)(CBr)CCC(Cl)C(C)(C)Cl (centres undefined) | 0.968 µM |
| COc1cc2c(c(OC)c1OC)C(=O)CC2N (centres undefined) | > 100 µM |
| CC(=O)c1cn(-c2ccc(Cl)cc2)c(=O)c2c(N)n[nH]c12 | > 100 µM |
| COc1cc(Br)c(CC2=NCCc3cc(OC)c(OC)cc32)cc1OC | > 100 µM |
| CCOC(=O)C12CC1(C(=O)OCC)C1CCC2C1 (centres undefined) | > 100 µM |
| CC(C)(C)CC(C)(C)c1ccc(OCCOCCSC(=N)N)cc1 | 3.42 µM |
| Cc1cc(=Nc2ccc3c(c2)c(N)cc(C)[n+]3C)nc(N)n1C | > 100 µM |
| c1ccc(-c2nc(N3CCNCC3)c3nc(-c4ccccc4)oc3n2)cc1 | 3.85 µM |
| Cc1cc(C)c(C(=O)OC(c2ccccc2)C(c2ccccc2)N2CCOCC2)c(C)c1 (centres undefined) | > 100 µM |
| COc1ccc([C@H]2O[C@@H](CO)C[C@]2(O)c2ccc(OC)cc2)cc1 | > 100 µM |
| N#Cc1nc(-c2ccccc2)oc1S(=O)(=O)N1CCOCC1 | 25.4 µM |
| Cn1c(O)c(C(=O)Nc2ccc([N+](=O)[O-])cc2)c(=O)n(C)c1=S | 8.33 µM |
| Fc1ccc(C(OCCN2CCC3CCC(C2)N3Cc2cc3ccccc3[nH]2)c2ccc(F)cc2)cc1 (centres undefined) | 2.49 µM |
| CC1(C)OCN(c2ccc(Cl)cc2)Cn2c1nc1ccccc12 | > 100 µM |
| CCS/C(Nc1ccccc1)=C(\C#N)C(=O)Nc1ccc(OC)cc1 | 33.3 µM |
| CCSC1=CC(=O)c2ccccc2C1=O | 34.7 µM |
| COC/C=C\[C@@]1(O)CCCC[C@@H]1CC(OC)OC | > 100 µM |
| CN(O)C(=O)Cc1ccccc1 | > 100 µM |
| COc1ccccc1-n1c(SCc2cc(OC)c(OC)c(OC)c2)nc2ccc(Cl)cc2c1=O | > 100 µM |
| COc1ccc(NC(=O)C(=O)C2NC(=S)NC2=O)c(OC)c1 (centres undefined) | > 100 µM |
| FC(F)(F)c1ccc(-c2cnc(Br)nc2NC2CCCCCC2)cc1 | > 100 µM |
| C[N+]1(C)CN(c2ccccc2)C2(CCN(CCCC(=O)c3cccs3)CC2)C1=O | > 100 µM |
| COc1cc2c(cc1OC)C(Cl)C(c1cc(OC)c(OC)c(OC)c1)=C2Cl (centres undefined) | 30.3 µM |
| COc1ccccc1/C=C\c1cc(OC)c(OC)c(OC)c1 | > 100 µM |
| O=[As](O)(O)c1ccc(Cc2ccc([As](=O)(O)O)cc2)cc1 | 2.38 µM |
| COc1ccc(C(Nc2ncccn2)c2cc3c(cc2O)OCO3)cc1 (centres undefined) | 58.4 µM |
| CCOC(=O)CCC(NC(=O)OCc1ccccc1)C(=O)NC(CCC(=O)OCC)C(=O)NC(CCC(=O)OCC)C(=O)NC(CCC(=O)OCC)C(=O)NC(CCC(=O)OCC)C(=O)OCC (centres undefined) | > 100 µM |
| NC(CSC(c1ccccc1)(c1ccccc1)c1ccc2ccccc2c1)C(=O)O (centres undefined) | > 100 µM |
| S=C1C=C(c2ccccc2)Sc2ccccc2N1 | > 100 µM |
| CN(/N=C\c1ccc2ccccc2c1)C1=NCCCCN1 | 38.2 µM |
| Fc1ccc(-c2ncn(C3CCNCC3)c2-c2ccnc(Oc3cccc(F)c3)n2)cc1 | 8.6 µM |
| CC[C@@H]1OC2(C)CC(S(=O)(=O)c3ccccc3)CC1O2 (some centres undefined) | > 100 µM |
| CSC(=NCCN=C(NS(=O)(=O)c1ccc(Cl)cc1)SC)NS(=O)(=O)c1ccc(Cl)cc1 | > 100 µM |
| O=c1[nH]c(-c2ccc(C(F)(F)F)cc2)nc2c1CSCC2 | > 100 µM |
| CCCCCCCSCC(O)COC(c1ccccc1)(c1ccccc1)c1ccccc1 (centres undefined) | 68.5 µM |
| CCC(=O)NCCc1c[nH]c2ccc(OC)cc12 | > 100 µM |

====

System: K-562 leukemia
Test: NCI tumour cell line growth inhibition, 48 h; in the data active = GI50 below about 0.43 µM; inactive = the rest
Possible outcomes: y for active, n for inactive

| Compound | System Name | Class Assignment |
| --- | --- | --- |
| CCS/C(Nc1ccccc1)=C(\C#N)C(=O)Nc1ccc(OC)cc1 | K-562 leukemia | n |
| CC[C@H](C)[C@H](NC(=O)C12C3C4C1C1C2C3C41NC(C)=O)C(=O)N(C)[C@H](C[C@@H](OC(C)=O)c1nc(C(=O)N[C@@H](Cc2ccccc2)C[C@H](C)C(=O)OC)cs1)C(C)C (stereo partly specified) | K-562 leukemia | y |
| Cn1ccnc1C(=O)/C=C/c1ccc(C(=O)Nc2nc3ccccc3[nH]2)cc1 | K-562 leukemia | n |
| COc1ccccc1-n1c(SCc2cc(OC)c(OC)c(OC)c2)nc2ccc(Cl)cc2c1=O | K-562 leukemia | n |
| CCNCCNc1cc(-c2ccc(F)cc2)c(C#N)c2nc3ccccc3n12 | K-562 leukemia | n |
| O=C(/C=C\c1ccnc2ccccc12)c1ccc([N+](=O)[O-])cc1 | K-562 leukemia | n |
| NC(CSC(c1ccccc1)(c1ccccc1)c1ccc2ccccc2c1)C(=O)O (stereo unspecified) | K-562 leukemia | y |
| CN(C)c1ccc(/C=C/c2ccnc3ccccc23)cc1 | K-562 leukemia | n |
| Fc1ccc(-c2ncn(C3CCNCC3)c2-c2ccnc(Oc3cccc(F)c3)n2)cc1 | K-562 leukemia | n |
| O=C(CCN1CCCC1)Nc1ccc2c(NCCCc3ccccc3)c3ccccc3nc2c1 | K-562 leukemia | n |
| FC(F)(F)c1ccc(-c2cnc(Br)nc2NC2CCCCCC2)cc1 | K-562 leukemia | n |
| c1ccc(-c2nc(N3CCNCC3)c3nc(-c4ccccc4)oc3n2)cc1 | K-562 leukemia | n |
| O=C(/C=C/c1cccc(Cl)c1)c1ccc(Cl)cc1Cl | K-562 leukemia | n |
| COc1ccc(/C=C2\N=C3SC=C(N)N3C2=O)cc1 | K-562 leukemia | n |
| O=Nc1c(O)ccc2ccccc12 | K-562 leukemia | n |
| Oc1c(CN2CCCC2)cc(COCc2ccccc2)c2cccnc12 | K-562 leukemia | n |

This collection of values is drawn from PubChem BioAssay (NCI).
